Listed below: IC50 values for each entry.
Target: human T1R2+T1R3 receptor (Homo sapiens)
Construct: expressed in transfected cells; host or cells: HEK293E
Sequence (Q7RTX0 21-852): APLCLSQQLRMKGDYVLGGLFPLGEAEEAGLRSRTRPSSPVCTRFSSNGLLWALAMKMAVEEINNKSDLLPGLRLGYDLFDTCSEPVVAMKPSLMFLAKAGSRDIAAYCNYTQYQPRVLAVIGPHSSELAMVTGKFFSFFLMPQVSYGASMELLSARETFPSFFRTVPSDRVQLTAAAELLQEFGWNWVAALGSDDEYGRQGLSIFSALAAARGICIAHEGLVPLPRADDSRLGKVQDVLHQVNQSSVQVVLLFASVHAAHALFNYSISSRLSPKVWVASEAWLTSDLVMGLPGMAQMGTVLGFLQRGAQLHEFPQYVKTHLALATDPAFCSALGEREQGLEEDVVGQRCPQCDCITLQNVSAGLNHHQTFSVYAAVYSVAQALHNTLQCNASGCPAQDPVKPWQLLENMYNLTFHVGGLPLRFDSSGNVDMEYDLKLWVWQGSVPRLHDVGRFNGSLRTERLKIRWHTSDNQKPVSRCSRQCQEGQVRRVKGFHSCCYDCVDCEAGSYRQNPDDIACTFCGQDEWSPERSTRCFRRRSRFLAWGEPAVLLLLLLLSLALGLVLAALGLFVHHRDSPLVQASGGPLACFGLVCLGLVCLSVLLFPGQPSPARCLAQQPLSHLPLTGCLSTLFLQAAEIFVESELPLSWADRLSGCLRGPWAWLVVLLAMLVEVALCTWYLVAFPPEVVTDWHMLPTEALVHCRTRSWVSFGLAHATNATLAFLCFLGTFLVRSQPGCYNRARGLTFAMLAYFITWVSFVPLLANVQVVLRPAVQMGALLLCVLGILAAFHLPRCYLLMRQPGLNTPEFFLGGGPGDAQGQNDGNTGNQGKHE
Sequence (Q8TE23 20-839 partner): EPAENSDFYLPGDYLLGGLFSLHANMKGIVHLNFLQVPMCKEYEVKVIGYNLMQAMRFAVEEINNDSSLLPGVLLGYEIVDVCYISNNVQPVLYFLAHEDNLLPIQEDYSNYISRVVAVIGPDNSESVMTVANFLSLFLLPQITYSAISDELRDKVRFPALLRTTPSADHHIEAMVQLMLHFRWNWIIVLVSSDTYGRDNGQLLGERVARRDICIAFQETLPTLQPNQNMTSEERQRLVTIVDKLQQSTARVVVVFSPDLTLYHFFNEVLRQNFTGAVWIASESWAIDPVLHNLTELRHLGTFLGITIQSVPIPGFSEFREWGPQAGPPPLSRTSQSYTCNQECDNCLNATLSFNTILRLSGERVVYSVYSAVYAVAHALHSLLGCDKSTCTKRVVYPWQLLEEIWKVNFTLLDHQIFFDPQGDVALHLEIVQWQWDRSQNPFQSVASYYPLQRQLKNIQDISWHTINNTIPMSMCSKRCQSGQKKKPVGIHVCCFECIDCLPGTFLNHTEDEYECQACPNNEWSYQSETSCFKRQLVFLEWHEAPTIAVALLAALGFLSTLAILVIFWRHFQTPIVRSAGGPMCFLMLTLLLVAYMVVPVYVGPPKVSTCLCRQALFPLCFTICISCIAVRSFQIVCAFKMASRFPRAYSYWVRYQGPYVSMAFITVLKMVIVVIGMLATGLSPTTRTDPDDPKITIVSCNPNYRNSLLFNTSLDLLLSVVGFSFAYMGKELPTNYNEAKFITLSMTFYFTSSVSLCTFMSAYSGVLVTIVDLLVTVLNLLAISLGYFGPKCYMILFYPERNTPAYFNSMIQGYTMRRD
Experiment: Heterologous calcium mobilization assay, HEK293 cells expressing human sweet receptor
Assay type: cell-based
Conditions: HEK 293 cells, hT1R2+hT1R3, 2.5 mM sucralose; read-out: IC50, inhibition of human sweet receptor

// below: answered compounds
CC(C)(Oc1ccc(CCNC(=O)c2ccc(Cl)cc2)cc1)C(=O)O [Bezafibric acid, reference compound] = 30 to 100 µM
Cc1ccc(C)c(OCCCC(C)(C)C(=O)O)c1 [Gemfibrozil, reference compound] = 30 to 100 µM

What value of IC50 has been recorded for this entry: O=C(O)Cc1cccc2ccccc12 [NAA, naphthalen-1-ylacetic acid] ≥ 142 µM
